Molecular target: IKKα (Homo sapiens)
Construct: purchased Life Technologies (Invitrogen)
Sequence (O15111 1-745): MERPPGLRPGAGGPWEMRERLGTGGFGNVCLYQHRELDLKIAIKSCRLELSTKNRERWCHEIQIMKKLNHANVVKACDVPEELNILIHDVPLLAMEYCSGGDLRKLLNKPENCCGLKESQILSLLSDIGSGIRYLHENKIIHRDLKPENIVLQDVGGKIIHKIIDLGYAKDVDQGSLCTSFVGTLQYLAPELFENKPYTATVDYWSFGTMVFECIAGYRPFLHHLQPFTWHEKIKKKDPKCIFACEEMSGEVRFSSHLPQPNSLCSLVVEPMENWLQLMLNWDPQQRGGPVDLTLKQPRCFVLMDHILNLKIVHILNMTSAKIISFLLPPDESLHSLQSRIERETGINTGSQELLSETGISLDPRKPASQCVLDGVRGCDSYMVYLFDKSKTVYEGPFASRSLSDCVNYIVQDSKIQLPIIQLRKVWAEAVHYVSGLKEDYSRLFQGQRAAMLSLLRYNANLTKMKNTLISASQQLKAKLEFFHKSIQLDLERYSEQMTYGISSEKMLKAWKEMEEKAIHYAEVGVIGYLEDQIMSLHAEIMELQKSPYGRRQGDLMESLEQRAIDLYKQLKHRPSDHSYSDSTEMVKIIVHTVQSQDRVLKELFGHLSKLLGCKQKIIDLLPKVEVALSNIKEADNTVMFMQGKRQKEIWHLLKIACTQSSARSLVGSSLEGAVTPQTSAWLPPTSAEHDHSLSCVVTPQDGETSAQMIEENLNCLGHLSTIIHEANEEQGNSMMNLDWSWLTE
Assay: MCE kinase assay, phosphorylation of FL-1 peptide by IKKα (secondary screen)
Type: biochemical
Details: compound at 10 µM, after 2 hours (at completion of the assay); LOPAC set; read-out: percent inhibition of IKKα
Structures can show the parent of a compound that is named as a salt.
compounds and their reported inhibition at 10 µM
test readout: inhibition at 10 µM (%)

• CC(=O)NCCc1c[nH]c2ccccc12 = -1.5
• Oc1c2ccccc2c2c3c(cccc13)N=N2 = 10
• CC(=O)OCC1=C(C(=O)O)N2C(=O)[C@@H](NC(=O)CSc3ccncc3)[C@H]2SC1 [UNC10100339, Cephapirin sodium salt] = -0.5
• COc1ccc2c(c1)/C(=C/c1cnc[nH]1)C(=O)N2 = 21.5

====

compounds and their reported inhibition at 10 µM
Biological target: TBK1 (Homo sapiens, UniProt Q9UHD2)
Construct: purchased Life Technologies (Invitrogen)
Sequence (Q9UHD2 1-729): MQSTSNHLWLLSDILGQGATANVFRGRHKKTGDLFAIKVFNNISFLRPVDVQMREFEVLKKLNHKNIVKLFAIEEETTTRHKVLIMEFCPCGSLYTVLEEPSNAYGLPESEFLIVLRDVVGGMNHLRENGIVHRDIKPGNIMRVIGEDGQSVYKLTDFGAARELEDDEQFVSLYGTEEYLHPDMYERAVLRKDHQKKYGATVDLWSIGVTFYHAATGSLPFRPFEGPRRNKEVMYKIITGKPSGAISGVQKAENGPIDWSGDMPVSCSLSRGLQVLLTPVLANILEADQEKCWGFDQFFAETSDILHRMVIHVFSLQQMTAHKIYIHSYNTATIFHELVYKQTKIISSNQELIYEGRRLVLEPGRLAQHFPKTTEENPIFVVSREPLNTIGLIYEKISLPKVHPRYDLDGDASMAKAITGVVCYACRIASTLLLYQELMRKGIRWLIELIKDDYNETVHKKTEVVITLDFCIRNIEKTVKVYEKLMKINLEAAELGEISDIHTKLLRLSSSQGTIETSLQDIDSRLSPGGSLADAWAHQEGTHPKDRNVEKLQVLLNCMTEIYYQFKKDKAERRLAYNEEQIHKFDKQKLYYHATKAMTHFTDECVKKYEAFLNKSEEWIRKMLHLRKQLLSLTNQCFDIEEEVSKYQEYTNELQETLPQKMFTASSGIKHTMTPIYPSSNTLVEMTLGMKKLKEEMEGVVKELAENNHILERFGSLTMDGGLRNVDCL
Assay: MCE (microfluidic capillary electrophoresis) kinase assay, phosphorylation of 5-FAM-TBK1-Tide by TBK1
Type: biochemical
Details: compound at 10 µM, after 2 hours (at completion of the assay); LOPAC set; read-out: percent inhibition of TBK1
Where a name gives a salt, the structure may show the parent alone.
test readout: inhibition at 10 µM (%)

* CC(=O)OCC1=C(C(=O)O)N2C(=O)[C@@H](NC(=O)CSc3ccncc3)[C@H]2SC1 [UNC10100339, Cephapirin sodium salt] | 34
* CC(=O)NCCc1c[nH]c2ccccc12 | 74.5
* Oc1c2ccccc2c2c3c(cccc13)N=N2 | 76.5
* COc1ccc2c(c1)/C(=C/c1cnc[nH]1)C(=O)N2 | 85.5

====

Target: IKKε (Homo sapiens, UniProt Q14164)
Construct: purchased Life Technologies (Invitrogen)
Sequence (Q14164 whole entry): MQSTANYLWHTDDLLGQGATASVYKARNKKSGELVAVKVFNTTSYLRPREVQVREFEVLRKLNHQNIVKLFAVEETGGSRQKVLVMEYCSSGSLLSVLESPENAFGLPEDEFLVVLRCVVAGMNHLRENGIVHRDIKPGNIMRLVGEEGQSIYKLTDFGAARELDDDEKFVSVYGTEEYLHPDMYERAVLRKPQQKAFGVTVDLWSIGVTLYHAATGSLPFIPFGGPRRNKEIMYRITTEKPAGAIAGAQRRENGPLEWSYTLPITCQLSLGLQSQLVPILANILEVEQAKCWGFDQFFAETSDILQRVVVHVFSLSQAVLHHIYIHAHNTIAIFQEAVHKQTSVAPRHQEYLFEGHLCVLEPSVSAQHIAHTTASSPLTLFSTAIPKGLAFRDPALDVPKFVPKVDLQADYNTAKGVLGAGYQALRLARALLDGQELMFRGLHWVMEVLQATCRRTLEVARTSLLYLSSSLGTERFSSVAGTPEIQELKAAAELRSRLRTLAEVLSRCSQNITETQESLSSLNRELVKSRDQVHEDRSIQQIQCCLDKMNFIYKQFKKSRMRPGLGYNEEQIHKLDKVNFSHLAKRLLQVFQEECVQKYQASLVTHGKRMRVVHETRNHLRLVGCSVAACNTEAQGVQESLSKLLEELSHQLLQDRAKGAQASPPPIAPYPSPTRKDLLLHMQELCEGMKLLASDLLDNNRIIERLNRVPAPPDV
Test: MCE kinase assay, phosphorylation of 5-FAM-TBK1-Tide by IKKε
Assay type: biochemical
Settings: compound at 10 µM, after 2 hours (at completion of the assay); LOPAC set
Outcome label depends on percent inhibition of IKKε relative to 20%: at/above gives 1 (yes), below gives 0 (no).

* COc1cc(/C=C(\C#N)C(=O)Nc2nnc(C(F)(F)F)s2)ccc1OCc1ccc(C(F)(F)F)cc1C(F)(F)F | 0 (no)
* O=C1Nc2ccccc2/C1=C1/Nc2ccccc2/C1=N\O | 1 (yes)
* O=c1cc(-c2ccccc2F)[nH]c2cc3c(cc12)OCO3 [UNC10100799, CHM-1 hydrate] | 0 (no)
* CN(C)CCC(c1ccc(Cl)cc1)c1ccccn1.O=C(O)/C=C\C(=O)O (racemic) [UNC10100321, (±)-Chlorpheniramine maleate salt] | 1 (yes)
* Brc1ccc([C@H]2CN3CCSC3=N2)cc1.O=C(O)C(=O)O [UNC10100081, (−)-p-Bromolevamisole oxalate] | 1 (yes)
* NC(Cc1cc(O)c(O)cc1O)C(=O)O (racemic) [UNC10100691, 6-Hydroxy-DL-DOPA] | 1 (yes)

The origin of these recorded values is paper PMC3408500.
